The measured values listed here are drawn from paper PMC3259534.

biological target: MRG15 MRG L287A (human) (UniProt Q9UBU8); assay: ITC
QUANTITY: pKd
// pKd here means minus log10 of the molar concentration (mol/L)

(Q) Which pKd reading was recorded for the binder DYVQPQLRRPFELLIAAAMERNPTQFQLPNELTCTTALPGSS (domain or fragment) [Pf1 MBD (MRG-binding domain, residues 200–241)] ?
(A) 6.39
